Molecular target: T1, Kunitz trypsin inhibitor (KTI) (UniProt P01070 25-205)
T1 sequence: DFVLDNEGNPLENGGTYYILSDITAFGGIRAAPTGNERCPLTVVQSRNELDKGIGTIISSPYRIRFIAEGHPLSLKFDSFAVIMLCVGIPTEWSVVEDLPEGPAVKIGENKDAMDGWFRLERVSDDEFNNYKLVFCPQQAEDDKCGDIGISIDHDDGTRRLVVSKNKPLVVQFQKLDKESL
Assay: GO fluorescence assay; text gives 52.6 ± 11.4; FAM-aptamer 0-600 nM with GO 60 min, then 1 uM KTI 2 h at room temperature in the dark; assay buffer, salt and pH not stated (oligos dissolved in TE pH 8.0)
Details: protein: commercial; label: 5'-FAM
reported_property: pKd
pKd is defined as minus the log10 of a concentration measured in mol/L.

Find the recorded pKd belonging to CTTCGTATCCTGTGCTGCAGTTGTTTTTAAGTGCTGGGAG (ssDNA) [Akti-5] and report it.
7.28
